Exercise: for every item that follows, state its recorded half-life at 20 µM.
Assay: Half life in simulated gastric fluid at 20 uM by LC-MS/MS analysis
Type: ADME
*1 amine or outer side, *2 acyl side, *3 side chain or, on linkers, in order; H or OH if unused. Where a SMILES comes first, the peptide text is derived from it. Bridges are numbered along the chain shown (N, C = ends). [ ]: non-standard residue; d: D form. Abu(4-yl) = O=C([C@H](CC[*:3])N[*:1])[*:2]; 2Nal = N[C@@H](Cc1ccc2ccccc2c1)C(=O)O; AEF = NCCOc1ccc(C[C@H](N)C(=O)O)cc1; αMeL = CC(C)C[C@](C)(N)C(=O)O

Prompt line: What measured half-life at 20 µM goes with "CC(=O)NCCCC[C@H](NC(=O)[C@](C)(CO)NC(=O)[C@H](Cc1ccc2ccccc2c1)NC(=O)[C@H](Cc1ccc(OCCN)cc1)NC(=O)[C@@H]1CSCC[C@H](NC(C)=O)C(=O)N[C@@H](CCC(N)=O)C(=O)N[C@@H]([C@@H](C)O)C(=O)N[C@@H](Cc2c[nH]c3ccccc23)C(=O)N[C@@H](CCC(N)=O)C(=O)N1)C(=O)N[C@@H](CC(N)=O)C(=O)NCC(N)=O" ?
Response line: 2 to 3 h

Prompt line: Moving on to "CC(=O)N[C@H]1CCSC[C@@H](C(=O)N[C@@H](Cc2ccc(OCCN)cc2)C(=O)N[C@@H](Cc2ccc3ccccc3c2)C(=O)N[C@@](C)(CCCCN)C(=O)N[C@@H](CCCCNC(=O)CC(C)C)C(=O)N[C@@H](CC(N)=O)C(=O)NCC(N)=O)NC(=O)[C@H](CCC(N)=O)NC(=O)[C@H](Cc2c[nH]c3ccccc23)NC(=O)[C@H]([C@@H](C)O)NC(=O)[C@H](CCC(N)=O)NC1=O"
Response line: > 6 h

Prompt line: Moving on to CC(=O)NCCCC[C@H](NC(=O)[C@](C)(CC(C)C)NC(=O)[C@H](Cc1ccc2ccccc2c1)NC(=O)[C@H](Cc1ccc(OCCN)cc1)NC(=O)[C@@H]1CSCC[C@H](NC(C)=O)C(=O)N[C@@H](CCC(N)=O)C(=O)N[C@@H]([C@@H](C)O)C(=O)N[C@@H](Cc2c[nH]c3ccccc23)C(=O)N[C@@H](CCC(N)=O)C(=O)N1)C(=O)N[C@@H](CC(N)=O)C(=O)N[C@@H](CC(N)=O)C(N)=O (Ac-[Abu(4-yl)]QTWQC[AEF][2Nal][αMeL]K(Ac)NN-NH2; thioether 1-6)
Response line: < 1 h

Prompt line: Moving on to "CC[C@](C)(NC(=O)[C@H](Cc1ccc2ccccc2c1)NC(=O)[C@H](Cc1ccc(OCCN)cc1)NC(=O)[C@@H]1CSCC[C@H](NC(C)=O)C(=O)N[C@@H](CCC(N)=O)C(=O)N[C@@H]([C@@H](C)O)C(=O)N[C@@H](Cc2c[nH]c3ccccc23)C(=O)N[C@@H](CCC(N)=O)C(=O)N1)C(=O)N[C@@H](CCCCNC(C)=O)C(=O)N[C@@H](CC(N)=O)C(=O)NCC(N)=O"
Response line: < 1 h

Prompt line: Moving on to "COc1ccc(C[C@H](NC(=O)[C@@H]2CSCC[C@H](NC(C)=O)C(=O)N[C@@H](CCC(N)=O)C(=O)N[C@@H]([C@@H](C)O)C(=O)N[C@@H](Cc3c[nH]c4ccccc34)C(=O)N[C@@H](CCC(N)=O)C(=O)N2)C(=O)N[C@@H](Cc2c[nH]c3ccccc23)C(=O)N[C@@](C)(CCCCN)C(=O)N[C@@H](CCCCNC(C)=O)C(=O)N[C@@H](CC(N)=O)C(=O)NCC(N)=O)cc1"
Response line: < 1 h

Prompt line: Moving on to "CC(=O)N[C@H]1CCSC[C@@H](C(=O)N[C@@H](Cc2ccc(OCCN)cc2)C(=O)N[C@@H](Cc2ccc3ccccc3c2)C(=O)N[C@@](C)(CCCCN)C(=O)N[C@@H](CCCCNC(=O)c2ccccc2)C(=O)N[C@@H](CC(N)=O)C(=O)NCC(N)=O)NC(=O)[C@H](CCC(N)=O)NC(=O)[C@H](Cc2c[nH]c3ccccc23)NC(=O)[C@H]([C@@H](C)O)NC(=O)[C@H](CCC(N)=O)NC1=O"
Response line: > 6 h

Prompt line: Moving on to "CC(=O)NCCCC[C@H](NC(=O)C(C)(C)NC(=O)[C@H](Cc1ccc2ccccc2c1)NC(=O)[C@H](Cc1ccc(OCCNC(C)=O)cc1)NC(=O)[C@@H](NC(=O)[C@H](CCC(N)=O)NC(=O)[C@H](Cc1c[nH]c2ccccc12)NC(=O)[C@@H](NC(=O)[C@H](CCC(N)=O)NC(=O)[C@@H](NC(C)=O)C(C)(C)S)[C@@H](C)O)C(C)(C)S)C(=O)N[C@@H](CC(N)=O)C(=O)N[C@@H](CCC(N)=O)C(N)=O"
Response line: > 6 h

Prompt line: Moving on to "CC(=O)N[C@H]1CCSC[C@@H](C(=O)N[C@@H](Cc2ccc(OCCN)cc2)C(=O)N[C@@H](Cc2ccc3ccccc3c2)C(=O)NC2(C(=O)N[C@@H](CCC(=O)O)C(=O)N[C@@H](CC(N)=O)C(=O)N[C@@H](CC(N)=O)C(N)=O)CCNCC2)NC(=O)[C@H](CCC(N)=O)NC(=O)[C@H](Cc2c[nH]c3ccccc23)NC(=O)[C@H]([C@@H](C)O)NC(=O)[C@H](CCC(N)=O)NC1=O"
Response line: > 6 h

Prompt line: Moving on to "COc1ccc(C[C@H](NC(=O)[C@@H](NC(=O)[C@H](CCC(N)=O)NC(=O)[C@H](Cc2c[nH]c3ccccc23)NC(=O)[C@@H](NC(=O)[C@H](CC(N)=O)NC(=O)[C@@H](NC(C)=O)C(C)(C)S)[C@@H](C)O)C(C)(C)S)C(=O)N[C@@H](Cc2ccc3ccccc3c2)C(=O)N[C@@](C)(CC(C)C)C(=O)N[C@@H](CCCCNC(C)=O)C(=O)N[C@@H](CC(N)=O)C(=O)N[C@@H](CC(N)=O)C(N)=O)cc1"
Response line: > 6 h

Prompt line: Moving on to "CC(=O)N[C@H](C(=O)N[C@@H](CC(N)=O)C(=O)N[C@H](C(=O)N[C@@H](Cc1c[nH]c2ccccc12)C(=O)N[C@@H](CCC(N)=O)C(=O)N[C@H](C(=O)N[C@@H](Cc1ccc(OCCN)cc1)C(=O)N[C@@H](Cc1ccc2ccccc2c1)C(=O)N[C@@H](CCC(C)C)C(=O)N[C@@H](CCC(=O)O)C(=O)N[C@@H](CC(N)=O)C(=O)N[C@@H](C)C(N)=O)C(C)(C)S)[C@@H](C)O)C(C)(C)S"
Response line: < 1 h

* * *

Target: Interleukin-23 receptor (Homo sapiens, UniProt Q5VWK5)
Sequence (Q5VWK5 whole entry): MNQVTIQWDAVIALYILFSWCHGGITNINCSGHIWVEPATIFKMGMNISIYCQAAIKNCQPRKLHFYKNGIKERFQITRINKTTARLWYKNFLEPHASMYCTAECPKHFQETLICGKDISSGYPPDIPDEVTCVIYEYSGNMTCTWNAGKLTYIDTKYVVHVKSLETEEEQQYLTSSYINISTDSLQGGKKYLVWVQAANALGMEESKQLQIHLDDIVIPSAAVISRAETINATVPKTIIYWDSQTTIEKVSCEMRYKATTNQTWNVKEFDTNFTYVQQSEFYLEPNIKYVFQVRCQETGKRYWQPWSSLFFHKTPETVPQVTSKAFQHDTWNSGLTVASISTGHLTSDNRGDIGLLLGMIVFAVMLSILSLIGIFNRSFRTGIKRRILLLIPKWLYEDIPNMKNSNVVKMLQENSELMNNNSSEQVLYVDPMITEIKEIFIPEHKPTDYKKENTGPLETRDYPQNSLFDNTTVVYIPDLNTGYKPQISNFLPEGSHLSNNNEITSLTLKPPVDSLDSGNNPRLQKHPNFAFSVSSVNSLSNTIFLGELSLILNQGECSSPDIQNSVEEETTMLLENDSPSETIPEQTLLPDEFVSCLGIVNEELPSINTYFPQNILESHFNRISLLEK
Assay: Inhibition of interleukin-23 binding to human interleukin-23 receptor incubated for 2 hrs by competitive binding ELISA
quantity: IC50

Prompt line: What measured IC50 goes with "COc1ccc(C[C@H](NC(=O)[C@H](Cc2ccc(OCCN)cc2)NC(=O)[C@@H]2CSCC[C@H](NC(C)=O)C(=O)N[C@@H](CCC(N)=O)C(=O)N[C@@H]([C@@H](C)O)C(=O)N[C@@H](Cc3c[nH]c4ccccc34)C(=O)N[C@@H](CCC(N)=O)C(=O)N2)C(=O)N[C@@](C)(CCCCN)C(=O)N[C@@H](CCCCNC(C)=O)C(=O)N[C@@H](CC(N)=O)C(=O)NCC(N)=O)cc1OC" ?
Response line: 10 to 25 nM

Prompt line: Moving on to "CCCCCCCCCCCCCCCC(=O)NCCCC[C@H](NC(=O)[C@H](CCCN)NC(=O)[C@H](Cc1c[nH]c2ccccc12)NC(=O)[C@H](Cc1ccc(O)cc1)NC(=O)[C@H](CS)NC(=O)[C@H](CCC(N)=O)NC(=O)[C@H](Cc1c[nH]c2ccccc12)NC(=O)[C@@H](NC(=O)[C@H](CCC(N)=O)NC(=O)[C@H](CS)NC(C)=O)[C@@H](C)O)C(=O)N[C@@H](CC(N)=O)C(=O)NCC(N)=O"
Response line: > 6000 nM

Prompt line: Moving on to "COc1ccc(C[C@H](NC(=O)[C@@H](NC(=O)[C@H](CCC(N)=O)NC(=O)[C@H](Cc2c[nH]c3ccccc23)NC(=O)[C@@H](NC(=O)[C@H](CCC(N)=O)NC(=O)[C@@H](NC(C)=O)C(C)(C)S)[C@@H](C)O)C(C)(C)S)C(=O)N[C@@H](Cc2ccc3ccccc3c2)C(=O)N[C@@](C)(CCCCN)C(=O)N[C@@H](CCCCNC(C)=O)C(=O)N[C@@H](CC(N)=O)C(=O)NCC(N)=O)cc1"
Response line: 25 to 100 nM

Prompt line: Moving on to "CC(=O)N[C@@H](CS)C(=O)N[C@@H](CCC(N)=O)C(=O)N[C@H](C(=O)N[C@@H](Cc1c[nH]c2ccccc12)C(=O)N[C@@H](CCC(N)=O)C(=O)N[C@@H](CS)C(=O)N[C@@H](Cc1ccc(O)cc1)C(=O)N[C@@H](Cc1c[nH]c2ccccc12)C(=O)N[C@H](CCCNC(=N)N)C(=O)N[C@H](CCC(=O)O)C(=O)N[C@@H](CC(N)=O)C(=O)NCC(=O)NCCOCC(=O)N[C@H](CCCCN)C(N)=O)[C@@H](C)O"
Response line: > 1000 nM

Prompt line: Moving on to "N=C(N)NCCC[C@H](NC(=O)[C@H](Cc1c[nH]c2ccccc12)NC(=O)[C@H](Cc1ccc(O)cc1)NC(=O)[C@@H]1CCSCc2ccc(cc2)C(=O)N[C@@H](CCC(N)=O)C(=O)N[C@@H](CC(=O)O)C(=O)N[C@@H](Cc2c[nH]c3ccccc23)C(=O)N[C@@H](CCC(N)=O)C(=O)N1)C(=O)N[C@@H](CCC(=O)O)C(=O)N[C@@H](CC(N)=O)C(=O)NCC(=O)NCCOCC(=O)N[C@H](CCCCN)C(N)=O"
Response line: > 30000 nM
